- Target System: T1, human PVRIG on cells (human, UniProt Q6DKI7 1-326)
- T1 construct: whole, on cells; over-expressed on HEK cells or endogenous on Jurkat and CD8 T cells; also called hPVRIG; HEK hPVRIG cells
- T1 sequence (looked up): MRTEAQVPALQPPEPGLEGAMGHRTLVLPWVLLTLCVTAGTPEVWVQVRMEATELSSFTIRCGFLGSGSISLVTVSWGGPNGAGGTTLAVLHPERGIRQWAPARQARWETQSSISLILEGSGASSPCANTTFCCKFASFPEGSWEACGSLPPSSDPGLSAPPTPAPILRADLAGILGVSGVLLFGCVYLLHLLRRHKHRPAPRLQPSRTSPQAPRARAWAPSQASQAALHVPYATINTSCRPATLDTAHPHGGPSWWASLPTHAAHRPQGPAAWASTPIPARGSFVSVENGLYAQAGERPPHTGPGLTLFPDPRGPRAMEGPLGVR
- Run Description: FACS, HEK hPVRIG over HEK parental cells, 3.3ug/ml
Recorded Metric: gMFIr HEK OE/par

Example entries begin here.
CHA.7.506 (antibody, V domains shown) VH: QVQLQQSGAELTRPGASVNLSCKASGYTFTSYWMQWVKQRPGQGLEWIGAIYPGDGDTRFNQKFKGKATLTADESSSTAYMQLSSLASEDSAVYYCATYYRYDDYWGQGTTLTVSS VL: QIVLTQSPAIMSASPGEKVTMTCSASSSVSYMHWYQQKSGTSPKRWIYDTSKLASGVPTRFSGSGSGTSYSLTISSMEAEDAATYYCQQWSSNPYTFGGGTKLEIK
0.76
CHA.7.530 (antibody, V domains shown) VH: QVQLQQSGAELMRPGTSVKVSCKASGYAFTNHLIEWIKQRPGQGLEWIGVINPGSDSTDYNEKFKDKATLTADKSSSTAYMQLSSLTSDDSAVYFCARSLYYNSWFVYWGQGTLVTVSA VL: DIQMTQSPASLSASVGETVTITCRASENIYSYLAWYQQKRGKSPQLLVYNAKTLVEGVPSRFSGSGSGTQFSLKINSLQPEDFGSYYCQHHYGTPYTFGGGTKLEIK
51.1

// query So what does the record say about gMFIr HEK OE/par for CHA.7.510 (antibody, V domains shown) VH: QVTLKESGPGILQPSQTLSLTCSFSGFSLNTSGTGVGWIRQPSGKGLEWLTHIWWNDNKFYNTFLKSRLTISKETSNNQVFLKIASVDTADAATYYCARMAYGNLWFVNWGQGTLVAVST VL: DIVLTQSPASLAVSLGQRASISCRASRSVTISGYSYMYWYQQKPGQPPRLLFYLASNLASGVPARFSGSGSGTDFTLNIHPVEEEDAAIYYCQHSRELPYTFGGGTKLEIK ?
// result 16.3
